Where do the numbers come from? From PubChem BioAssay (NCI).

Could you please report measured growth for the items listed next?
Tested on: SF-539 CNS
Experiment: NCI-60 one-dose screen, 48 h (100 = growth as untreated, 0 = no growth, -100 = all killed)
Conditions: 10 µM unless noted
Compounds without any hit were thinned out: in the full panel of roughly 83,000, 20% have a hit.
Answers are plain numbers, in %.

C=C(C)[C@@H]1CC[C@]2(C(=O)NCCCN(CCC#N)CCC#N)CC[C@]3(C)[C@H](CC[C@@H]4[C@@]5(C)CCC(=O)C(C)(C)[C@@H]5CC[C@]43C)[C@@H]12 :: 99.7
O=C(Cn1cc(CN2C(=O)c3ccc([N+](=O)[O-])cc3C2=O)nn1)Nc1ccccc1Br :: 107
O=S(=O)(Nc1cc(Cl)c(F)c(Cl)c1)c1ccc(-c2cnc(C3CC3)o2)cc1 :: 19.2
O=C(CN1C(=O)S/C(=C\c2ccccc2)C1=O)Nc1ccc(C(=O)/C=C/c2cc3ccccc3nc2Cl)cc1 :: 90.8
Fc1ccccc1/C=C(/C1=NCCN1)n1cnc2ccccc21 :: 95.6
Cc1cn(-c2cc(NC(=O)c3cncc(C#Cc4cnc5ccc(O[C@H]6CCOC6)nn45)c3)cc(C(F)(F)F)c2)cn1 :: 59.3
CCOC(=O)C1=C(C)Nc2nc3ccccc3n2C1c1cccc(Br)c1 (centres undefined) :: 85.8
N#Cc1c(NC(=O)c2ccc(F)c(Cl)c2)sc2c1CCC(=O)C2 :: -56.2

Now take the following compound into account.
Record summary for CN(C)C(=O)C1=NC(CO)C(=O)N(c2ccc(Cl)cc2)N1 (centres undefined) : reported growth = 95.8

* * *

Tested on: ACHN renal
Test: NCI-60 one-dose screen, 48 h (100 = growth as untreated, 0 = no growth, -100 = all killed)
Conditions: 10 µM unless noted
This is part of a sample that, as a whole, favours compounds with a hit. Of some 83,000 tested, about 20% had one in any assay.
Would you mind telling me the reported growth of each entry?
Numbers only, in %.

These recorded examples may help you get a feel for the data.
NCCN1CCN(c2nc(-c3ccccc3)nc3nc(-c4ccccc4)oc23)CC1 :: -95.4
Cc1cc(F)cc(NS(=O)(=O)c2ccc(-c3cnc(C4CC4)o3)cc2)c1 :: 44.4
CC1COc2c(N3CCN(C)CC3)c(F)cc3c(=O)c(C(=O)N/N=C/c4cc[nH]c4)cn1c23 (centres undefined) :: 43.8
C#CCOc1ccc(C(Nc2cc(Cl)ccc2Cl)c2nnnn2C2CCCCC2)cc1 (centres undefined) :: 92
CN1CCN(c2ccc3c(c2)nc(NNC(=O)c2ccncn2)c2cccn23)CC1 :: 12.5
COc1ccc(NC(=O)[C@H](C)NC(=O)OC(C)(C)C)cc1C(=O)Nc1cccc(-c2cc(=O)c3c(OC)c(OC)c(OC)cc3o2)c1 :: 10.3
C/C(=C(/c1ccc(O)cc1)c1ccc(OCCN2CCCC2)cc1)c1ccc(Cl)cc1 :: 33.7
COc1cc2oc(-c3cccc(NC(=O)c4cc(NC(=O)[C@H](C)NC(=O)OC(C)(C)C)ccc4C)c3)cc(=O)c2c(OC)c1OC :: 61.9

Give measured growth for every item shown.
1. O=c1cc(-c2ccccc2)nc2sc(-c3c[nH]c4ccc(Br)cc34)nn12
2. CN1CCN(Cc2ccc(NC(=O)c3cncc(C#Cc4cnc5ccc(NC6CCOCC6)nn45)c3)cc2C(F)(F)F)CC1
3. Cc1nn(-c2ccc(Br)cc2)c2nc(CCl)[nH]c(=O)c12
4. O=C(NCCCCCCNC(=O)c1c2c(nc3ccccc13)-c1cccnc1SC2)c1c2c(nc3ccccc13)-c1cccnc1SC2
5. CC(=O)Nc1ccc(C)c(Nc2cc(-c3ccc(-n4cccn4)cc3)[nH]n2)c1
6. CN1CCN(c2ccc(NC(=O)Nc3ccc4c(ccn4-c4cccc(C(N)=O)n4)c3)cc2C(F)(F)F)CC1
7. COc1cc(/C=N/n2cnc3oc(-c4ccccc4)cc3c2=N)cc(CN2CCOCC2)c1O

Response given:
1. 96.3
2. -95.5
3. 94.8
4. 65.8
5. 65.8
6. 71.8
7. 28

For each of the items listed, what is its growth?
1. Cn1cc(-c2nn3cc(-c4cccnc4)nc3s2)c2cc(F)ccc21
2. O=C(CSc1nnc(-c2ccc(Cl)cc2)n1-c1ccccc1)Nc1ccc(F)cc1
3. CS(=O)(=O)c1ccc(-c2nn(-c3ccccc3)cc2/C=N/NC(=O)c2ccncc2)cc1
4. O=C(c1cccc(F)c1)n1ccc2cc(NC(=S)Nc3cccnc3)ccc21

Response given:
1: 83.8; 2: 24.7; 3: 107; 4: 103

* * *

Test system: NCI-H460 lung
Test: NCI-60 one-dose screen, 48 h
Conditions: 10 µM unless noted
Compounds without any hit were thinned out: in the full panel of roughly 83,000, 20% have a hit. Activity calls are given as the source filed them. Rule for the calls: active = growth percent below 10; inactive = the rest.
Answer with one of the outcomes given here: active, inactive

Challenge: Identify the outcome logged in this assay for the compound shown: O=S(=O)(Nc1ccc2c(c1)OC(F)(F)O2)c1ccc(-c2cnc(C3CC3)o2)cc1
Response given: inactive

Challenge: Record request — test call for COc1ccc(-c2nc3cc(Cl)c(Cl)cc3n2CC(=O)N=Nc2c(O)[nH]c3ccccc23)cc1
Response given: inactive

Challenge: What was the test verdict on COc1ccc(Cn2cc3c(c2-c2ccccc2)CCCc2cnoc2-3)cc1[N+](=O)[O-] ?
Response given: inactive

* * *

For each record, write down the corresponding growth.
Test system: U251 CNS
Assay: NCI-60 one-dose screen, 48 h (100 = growth as untreated, 0 = no growth, -100 = all killed)
Conditions: 10 µM unless noted
This is part of a sample that, as a whole, favours compounds with a hit. Of some 83,000 tested, about 20% had one in any assay. The source made the active and inactive calls. Rule for the calls: active = growth percent below 10; inactive = the rest.

Worked examples follow.
O=C(Nc1cc(Cl)cc(Cl)c1)Nc1ccc2oc(=O)ccc2c1 :: 6.21% (active)
COCCOc1ccc(-c2csc(NC(=O)CN3CCN(CCO)CC3)n2)cc1NS(=O)(=O)c1cccc2c(N(C)C)cccc12 :: 49.1% (inactive)
COc1cc2oc(-c3cccc(NC(=O)c4cc(NC(=O)[C@H](C)NC(=O)OC(C)(C)C)ccc4C)c3)cc(=O)c2c(OC)c1OC :: 53.5% (inactive)
IP(CCCCCCCCCCSc1n(Cc2ccc3ccccc3c2)c(-c2ccccc2)c(-c2ccccc2)[n+]1Cc1ccc2ccccc2c1)(c1ccccc1)(c1ccccc1)c1ccccc1 :: -68.5% (active)
IP(CCCSc1n(Cc2ccc3ccccc3c2)c(-c2ccccc2)c(-c2ccccc2)[n+]1Cc1ccc2ccccc2c1)(c1ccccc1)(c1ccccc1)c1ccccc1 :: 10.3% (inactive)

Dear reader, for each entry below, please note its growth.
1. CCNC(=O)Oc1ccc(/C(=C(/C)c2ccc(Cl)cc2)c2ccc(OCCN3CCCC3)cc2)cc1
2. COc1cc(C(=O)c2cc(C(C)=O)c3c4ccccc4ccn23)cc(OC)c1OC
3. COc1c([C@@H](CC(C)C)OC(C)=O)ccc2c1C(=O)OCc1cc(C)cc(O)c1O2

Response given:
["60.1% (inactive)", "73.6% (inactive)", "20.1% (inactive)"]

Respectfully, I request growth for each entry included below.
1. CCNCc1c(-c2cccc(OC(F)(F)F)c2)[nH]c2ccc(N3CCCC3)cc2c1=O
2. Cc1ccc(Nc2ncnc3c2c(C)nn3-c2ccc([N+](=O)[O-])cc2)cc1
3. COc1cc([C@H]2OC[C@H]3[C@@H]2CO[C@@H]3c2ccc(O)c(OC)c2)ccc1O
4. Nc1ccc(-c2nnc(SCc3ccc(O)c4ncccc34)o2)cc1
5. Nc1cc(F)ccc1NC(=O)c1ccc(NC(=O)C/C=C/c2cccnc2)cn1
6. CCC(CC)N1C(=O)/C(=c2\sc3n(c2=O)C2C(NN=3)N(CC)C(=O)N2CC)c2ccccc21 (configuration not stated)

Response given:
1. 20% (inactive)
2. 60.1% (inactive)
3. 97% (inactive)
4. -6.47% (active)
5. 17.9% (inactive)
6. 27.1% (inactive)

Provide growth values for the following items, in order.
1. COc1ccc(S(=O)(=O)n2cc(C=O)c3ccccc32)c(OC)c1
2. COc1cc(C2CC(c3ccc(Nc4nc(NCCO)nc(Nc5ccc(Cl)cc5)n4)cc3)=Nc3c(N)nc(N)nc3N2)cc(OC)c1OC (configuration not stated)
3. Cc1cc(=O)n2nc(-c3cn(C)c4ccc(Cl)cc34)sc2n1
4. COc1ccc([C@H]2[C@H](O)C(=O)N2c2cc(OC)c(OC)c(OC)c2)cc1Cl

Response given:
1. 52.8% (inactive)
2. 38.7% (inactive)
3. 98.5% (inactive)
4. 1.42% (active)

Parameters: items (list). Returns: growth for each item.
1. O=C(CSc1nnc(-c2ccc(Cl)cc2)n1-c1ccccc1)Nc1ccc(F)cc1
2. O=C(Nc1ccc(Cl)cc1)Nc1nc2ccc([N+](=O)[O-])cc2s1

Response given:
["6.66% (active)", "-11% (active)"]

* * *

System: CAKI-1 renal
Test: NCI-60 one-dose screen, 48 h
Conditions: 10 µM
This is part of a sample that, as a whole, favours compounds with a hit. Of some 83,000 tested, about 20% had one in any assay. Active and inactive are the calls of the source. The calls were made as follows: active = growth percent below 10; inactive = the rest.
Just give me one of these, please: 1 (yes) (active), 0 (no) (inactive)

Solved cases (3 shown):
O=C1[C@@H]2Cc3c([nH]c4ccccc34)[C@H](c3c(Cl)cccc3Cl)N2C(=O)CN1C1CCN(Cc2ccccc2)CC1 :: 0 (no)
CCNC(=O)Oc1ccc(/C(=C(/C)c2ccc(Cl)cc2)c2ccc(OCCN(C)C)cc2)cc1 :: 0 (no)
CC1OC(O[C@@H]2[C@H](O)C(CO)OC(O[C@H]3COC(O[C@H]4CC[C@]5(C)[C@H]6CC[C@]78OC[C@@]9(CCC(C)(C)C[C@H]97)[C@H](O)C[C@@]8(C)[C@]6(C)CC[C@H]5C4(C)C)[C@@H](OC4OC(CO)[C@@H](O)[C@@H](O)[C@@H]4O)[C@@H]3O)[C@H]2OC2OC[C@@H](O)[C@@H](O)[C@@H]2O)[C@@H](O)[C@@H](O)[C@H]1O (some centres undefined) :: 1 (yes)

Turning now to a further record.
Challenge: Per the records of this test, what outcome belongs to Cc1[nH]nc2ccc(-c3nc4cnc(N5CCN(C)CC5)cn4c3Nc3ccc(F)cc3Br)cc12 ?
Response given: 0 (no)
